B1: 2K2A (parent)
chain: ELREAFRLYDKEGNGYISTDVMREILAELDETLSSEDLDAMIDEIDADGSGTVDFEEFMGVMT

# Variants of: B1
# measurementNotes: folding stability dG (cDNA display proteolysis); higher = more stable
# conditionDetails: PBS, room temperature
measurementLabel: folding stability dG (kcal/mol)
Write the answer as a number in kcal/mol, unit excluded.

{"mutantLabel": "Y9Q", "measurementLabel": "folding stability dG", "readoutNumber": 0.85}
{"mutantLabel": "T63F", "measurementLabel": "folding stability dG", "readoutNumber": 1.56}
{"mutantLabel": "E57W", "measurementLabel": "folding stability dG", "readoutNumber": 1.55}

Next up:
Q: Which folding stability dG is reported for this variant? S34Q
A: 1.18
